Values were extracted from the supplement of paper PMC11061612.

Tested on: JHH-7 (Hepatocellular Carcinoma);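 note: after 72 h of two-drug dosing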
EXPERIMENTAL_PROTOCOL: Bliss excess, mean over the matrix (fraction); higher = more synergy
Label 1 when Bliss excess is at or above -0.03; anything below gets 0.

For orientation, consider the following solved cases.
[Q] Item CN(CCO)CC[C@H](CSc1ccccc1)Nc1ccc(S(=O)(=O)NC(=O)c2ccc(N3CCC([C@@H](O)c4ccccc4-c4ccc(Cl)cc4)CC3)cc2)cc1S(=O)(=O)C(F)(F)F [AZD4320] + CCN(CCO)CCCOc1ccc2c(Nc3cc(CC(=O)Nc4cccc(F)c4)[nH]n3)ncnc2c1 [AZD2811] (first compound max 1 µM, 7x7, partner max 1 µM) with Bliss excess of -0.03 or above?
[A] 1

[Q] Dear colleague, could you confirm whether COc1cc2c(cc1OCCCCCOc1cc3c(cc1OC)C(=O)N1C=C(C)C[C@H]1C=N3)N=C[C@@H]1CC(C)=CN1C2=O [SG3199] + O=C(c1cc(Cc2n[nH]c(=O)c3ccccc23)ccc1F)N1CCN(C(=O)C2CC2)CC1 [Olaparib] (first compound max 0.001 µM, 7x7, partner max 10 µM) has Bliss excess at or above -0.03?
[A] 0

[Q] Is Bliss excess for Cc1c2c(nn1C)CSCc1cc(n(C)n1)CSc1cc(c3ccccc3c1)OCCCc1c(C(=O)O)n(C)c3c-2c(Cl)ccc13 [AZD5991] + CC1(C)CCC(CN2CCN(c3ccc(C(=O)NS(=O)(=O)c4ccc(NCC5CCOCC5)c([N+](=O)[O-])c4)c(Oc4cnc5[nH]ccc5c4)c3)CC2)=C(c2ccc(Cl)cc2)C1 [Venetoclax] (first compound max 1 µM, 7x7, partner max 1 µM) at or above -0.03?
[A] 1

[Q] Assess whether reported Bliss excess for CC1(C)CCC(CN2CCN(c3ccc(C(=O)NS(=O)(=O)c4ccc(NCC5CCOCC5)c([N+](=O)[O-])c4)c(Oc4cnc5[nH]ccc5c4)c3)CC2)=C(c2ccc(Cl)cc2)C1 [Venetoclax] + C1CN(CCC1(C(=O)N[C@@H](CCO)C2=CC=C(C=C2)Cl)N)C3=NC=NC4=C3C=CN4 [Capivasertib] (first compound max 1 µM, 7x7, partner max 3 µM) sits at -0.03 or higher.
[A] 1

[Q] Record Cc1c2c(nn1C)CSCc1cc(n(C)n1)CSc1cc(c3ccccc3c1)OCCCc1c(C(=O)O)n(C)c3c-2c(Cl)ccc13 [AZD5991] + CN(C)CCCOc1ccc(-c2ccc3ncc4c(c3c2)n(C2CCOCC2)c(=O)n4C)cn1 [AZD0156] (first compound max 1 µM, 7x7, partner max 1 µM) ; criterion: Bliss excess no lower than -0.03. Met?
[A] 1

[Q] Is it the case that C[C@@H](Nc1cc(F)cc(F)c1)c1cc(C(=O)N(C)C)cc2c(=O)cc(N3CCOCC3)oc12 [AZD8186] + C1CN(CCC1(C(=O)N[C@@H](CCO)C2=CC=C(C=C2)Cl)N)C3=NC=NC4=C3C=CN4 [AZD5363] (first compound max 10 µM, 7x7, partner max 10 µM) has Bliss excess reaching or exceeding -0.03?
[A] 0

[Q] Confirm if Bliss excess reported for the compound O=C(c1cc(Cc2n[nH]c(=O)c3ccccc23)ccc1F)N1CCN(C(=O)C2CC2)CC1 [Olaparib] + COc1nnc2ccc(N3CCC(c4ccc(OCCN5CCN(C)C(=O)[C@H]5C)cc4)CC3)nn12 [AZD5153] (first compound max 10 µM, 7x7, partner max 1 µM) is -0.03 or above.
[A] 0

[Q] Exam item: decide whether the reported Bliss excess for Cn1cnc2c(F)c(Nc3ccc(Br)cc3Cl)c(C(=O)NOCCO)cc21 [Selumetinib] + CC(C)n1c(=O)n(C)c2cnc3cc(F)c(-c4ccc(OCCCN5CCCCC5)nc4)cc3c21 [AZD1390] (first compound max 10 µM, 7x7, partner max 0.3 µM) is at least -0.03.
[A] 0

Others:
[Q] Check this compound for Bliss excess at or above -0.03: COc1cccc2c1C(=O)c1c(O)c3c(c(O)c1C2=O)C[C@@](O)(C(=O)CO)C[C@@H]3O[C@H]1C[C@H](N)[C@H](O)[C@H](C)O1 [Doxorubicin] + Cc1cc2ncnn2cc1Nc1ncc2c(n1)n(C1CCOCC1)c(=O)n2C [AZD7648] (first compound max 1 µM, 7x7, partner max 10 µM)
[A] 1

[Q] Does Bliss excess meet or surpass -0.03 for COc1cc2ncnc(Nc3ccc(F)c(Cl)c3)c2cc1OCCCN1CCOCC1 [Gefitinib] + CC(C)n1c(=O)n(C)c2cnc3cc(F)c(-c4ccc(OCCCN5CCCCC5)nc4)cc3c21 [AZD1390] (first compound max 10 µM, 7x7, partner max 0.3 µM) ?
[A] 0

[Q] # check: Bliss excess of CC1(C)CCC(CN2CCN(c3ccc(C(=O)NS(=O)(=O)c4ccc(NCC5CCOCC5)c([N+](=O)[O-])c4)c(Oc4cnc5[nH]ccc5c4)c3)CC2)=C(c2ccc(Cl)cc2)C1 [Venetoclax] + C[C@@H](Nc1cc(F)cc(F)c1)c1cc(C(=O)N(C)C)cc2c(=O)cc(N3CCOCC3)oc12 [AZD8186] (first compound max 1 µM, 7x7, partner max 3 µM) is greater than or equal to -0.03
[A] 0

[Q] Tell me whether Bliss excess is at least -0.03 here: CN(CCO)CC[C@H](CSc1ccccc1)Nc1ccc(S(=O)(=O)NC(=O)c2ccc(N3CCC([C@@H](O)c4ccccc4-c4ccc(Cl)cc4)CC3)cc2)cc1S(=O)(=O)C(F)(F)F [AZD4320] + CS(=O)(=O)CCNCc1ccc(-c2ccc3ncnc(Nc4ccc(OCc5cccc(F)c5)c(Cl)c4)c3c2)o1 [Lapatinib] (first compound max 1 µM, 7x7, partner max 10 µM)
[A] 1

====

Reported combination Emax values for the following compounds.
Test system: HSC-2 (Oral Cavity Carcinoma)
EXPERIMENTAL_PROTOCOL: combination Emax (second highest fraction inhibited in the dose matrix, 72 h); higher = more inhibition; extreme values may be limits of the assay
In your answer, state the number alone without any accompanying words.

[Q] What value of combination Emax has been recorded for this entry: Cn1cnc2c(F)c(Nc3ccc(Br)cc3Cl)c(C(=O)NOCCO)cc21 [Selumetinib] + CCN(CCO)CCCOc1ccc2c(Nc3cc(CC(=O)Nc4cccc(F)c4)[nH]n3)ncnc2c1 [AZD2811] (first compound max 10 µM, 7x7, partner max 1 µM)
[A] 0.376

[Q] If you can, please state the reported combination Emax value of CCN(CCO)CCCOc1ccc2c(Nc3cc(CC(=O)Nc4cccc(F)c4)[nH]n3)ncnc2c1 [AZD2811] + C=CCn1c(=O)c2cnc(Nc3ccc(N4CCN(C)CC4)cc3)nc2n1-c1cccc(C(C)(C)O)n1 [AZD1775] (first compound max 1 µM, partner max 1 µM) .
[A] 0.43

[Q] So what's the measured combination Emax for this one? CC1(C)CCC(CN2CCN(c3ccc(C(=O)NS(=O)(=O)c4ccc(NCC5CCOCC5)c([N+](=O)[O-])c4)c(Oc4cnc5[nH]ccc5c4)c3)CC2)=C(c2ccc(Cl)cc2)C1 [Venetoclax] + C1CN(CCC1(C(=O)N[C@@H](CCO)C2=CC=C(C=C2)Cl)N)C3=NC=NC4=C3C=CN4 [Capivasertib] (first compound max 1 µM, 7x7, partner max 3 µM)
[A] 0.364

[Q] // returns reported combination Emax for input NC1(C(=O)N[C@@H](CCO)c2ccc(Cl)cc2)CCN(c2ncnc3[nH]ccc23)CC1 [Capivasertib] + CC(C)n1c(=O)n(C)c2cnc3cc(F)c(-c4ccc(OCCCN5CCCCC5)nc4)cc3c21 [AZD1390] (first compound max 10 µM, 7x7, partner max 0.3 µM)
[A] 0.447

---
[Q] Which measured combination Emax value corresponds to CN(CCO)CC[C@H](CSc1ccccc1)Nc1ccc(S(=O)(=O)NC(=O)c2ccc(N3CCC([C@@H](O)c4ccccc4-c4ccc(Cl)cc4)CC3)cc2)cc1S(=O)(=O)C(F)(F)F [AZD4320] + C1CN(CCC1(C(=O)N[C@@H](CCO)C2=CC=C(C=C2)Cl)N)C3=NC=NC4=C3C=CN4 [Capivasertib] (first compound max 1 µM, 7x7, partner max 3 µM) ?
[A] 0.362

[Q] What value of combination Emax has been reported for the following compound? COc1nnc2ccc(N3CCC(c4ccc(OCCN5CCN(C)C(=O)[C@H]5C)cc4)CC3)nn12 [AZD5153] + Cc1c2c(nn1C)CSCc1cc(n(C)n1)CSc1cc(c3ccccc3c1)OCCCc1c(C(=O)O)n(C)c3c-2c(Cl)ccc13 [AZD5991] (first compound max 1 µM, 7x7, partner max 1 µM)
[A] 0.963

[Q] Recorded combination Emax for CS(=O)(=O)CCNCc1ccc(-c2ccc3ncnc(Nc4ccc(OCc5cccc(F)c5)c(Cl)c4)c3c2)o1 [Lapatinib] + NC1(c2ccc(-c3nc4ccn5c(=O)[nH]nc5c4cc3-c3ccccc3)cc2)CCC1 [MK-2206] (first compound max 10 µM, 7x7, partner max 10 µM) , please?
[A] 0.987
